- system tested: Protein kinase C beta type (Homo sapiens, UniProt P05771)
- Sequence (P05771 whole entry): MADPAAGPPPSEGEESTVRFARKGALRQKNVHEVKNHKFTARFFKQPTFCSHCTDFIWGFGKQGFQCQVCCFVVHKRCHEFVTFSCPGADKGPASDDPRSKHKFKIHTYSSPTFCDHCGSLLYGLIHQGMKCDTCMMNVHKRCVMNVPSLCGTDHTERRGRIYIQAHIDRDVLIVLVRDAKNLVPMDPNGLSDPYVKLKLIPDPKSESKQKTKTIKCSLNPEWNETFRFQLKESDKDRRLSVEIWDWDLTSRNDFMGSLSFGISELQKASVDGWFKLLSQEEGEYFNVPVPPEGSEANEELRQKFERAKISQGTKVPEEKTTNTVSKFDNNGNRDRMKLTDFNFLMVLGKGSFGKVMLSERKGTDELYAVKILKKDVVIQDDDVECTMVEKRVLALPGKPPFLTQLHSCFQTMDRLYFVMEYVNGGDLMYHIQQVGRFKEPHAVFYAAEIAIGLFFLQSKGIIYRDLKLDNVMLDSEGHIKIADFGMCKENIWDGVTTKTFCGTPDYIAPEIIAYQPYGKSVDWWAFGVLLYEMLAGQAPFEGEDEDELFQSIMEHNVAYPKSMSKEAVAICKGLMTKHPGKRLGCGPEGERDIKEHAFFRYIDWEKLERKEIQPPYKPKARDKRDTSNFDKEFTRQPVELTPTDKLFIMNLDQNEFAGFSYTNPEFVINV
- test details: Inhibition of Protein kinase C beta 1
I'd be grateful if you could share measured IC50 for these entries.
Answers are plain numbers, in µM.

[[record]]
compound = "O=C(NC1C2CC(C3CCCC32)C1OC(=O)c1cc(O)c(C(=O)c2c(O)cccc2C(=O)O)c(O)c1)c1ccc(O)cc1 (stereo in doubt; syn)"
outcome_measure = "IC50"
reading_unit = "µM"
test_result = 3.3

[[record]]
compound = "O=C(NC1C2CCC(C2)C1OC(=O)c1cc(O)c(C(=O)c2c(O)cccc2C(=O)O)c(O)c1)c1ccc(O)cc1 (racemic)"
outcome_measure = "IC50"
reading_unit = "µM"
test_result = 0.045

[[record]]
compound = "CN1C2CCC1C(NC(=O)c1ccc(O)cc1)C(OC(=O)c1cc(O)c(C(=O)c3c(O)cccc3C(=O)O)c(O)c1)C2 (stereo in doubt; anti)"
outcome_measure = "IC50"
reading_unit = "µM"
test_result = 4.4

[[record]]
compound = "CC1(C)C2CCC1(C)C(OC(=O)c1cc(O)c(C(=O)c3c(O)cccc3C(=O)O)c(O)c1)C2NC(=O)c1ccc(O)cc1 (stereo unspecified)"
outcome_measure = "IC50"
reading_unit = "µM"
test_result = 0.31

[[record]]
compound = "O=C(NC1CNC[C@@H]1OC(=O)c1cc(O)c(C(=O)c2c(O)cccc2C(=O)O)c(O)c1)c1ccc(O)cc1 (mixture of isomers)"
outcome_measure = "IC50"
reading_unit = "µM"
test_result = 0.017


From here, focus on the item given below.
compound O=C(NC1CN2CCC(CC2)C1OC(=O)c1cc(O)c(C(=O)c2c(O)cccc2C(=O)O)c(O)c1)c1ccc(O)cc1 (stereo in doubt; anti) , IC50 observed: 0.026

----------
- system tested: Protein kinase C delta type (Homo sapiens, UniProt Q05655)
- Sequence (Q05655 whole entry): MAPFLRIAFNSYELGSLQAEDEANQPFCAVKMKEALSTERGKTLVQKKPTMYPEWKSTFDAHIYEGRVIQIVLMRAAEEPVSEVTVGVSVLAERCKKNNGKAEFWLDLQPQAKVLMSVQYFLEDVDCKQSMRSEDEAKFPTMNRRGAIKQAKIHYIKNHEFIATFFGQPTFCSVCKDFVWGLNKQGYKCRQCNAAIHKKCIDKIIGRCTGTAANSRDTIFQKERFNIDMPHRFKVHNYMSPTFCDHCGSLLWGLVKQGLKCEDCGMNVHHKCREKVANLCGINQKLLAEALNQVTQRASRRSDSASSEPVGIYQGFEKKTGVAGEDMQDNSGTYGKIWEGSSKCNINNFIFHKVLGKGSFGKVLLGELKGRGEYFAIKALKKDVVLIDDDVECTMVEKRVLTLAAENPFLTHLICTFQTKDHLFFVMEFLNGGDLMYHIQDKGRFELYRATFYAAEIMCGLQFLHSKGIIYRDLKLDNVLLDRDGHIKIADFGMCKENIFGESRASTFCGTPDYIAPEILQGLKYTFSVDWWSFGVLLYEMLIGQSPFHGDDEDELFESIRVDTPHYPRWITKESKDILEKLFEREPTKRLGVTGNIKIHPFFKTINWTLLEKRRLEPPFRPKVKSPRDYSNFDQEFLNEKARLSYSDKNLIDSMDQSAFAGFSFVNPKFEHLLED
- test details: Inhibition of Protein kinase C delta
Entries whose IC50 is below 1000 nM take Fulfilled; entries at or above 1000 nM take Not fulfilled.

Recorded results for 4 molecules are shown here.
[[record]]
molecule = "O=C(NC1CNC[C@@H]1OC(=O)c1cc(O)c(C(=O)c2c(O)cccc2C(=O)O)c(O)c1)c1ccc(O)cc1 (mixture of isomers)"
category_label = "Fulfilled"

[[record]]
molecule = "O=C(NC1C2CC(C3CCCC32)C1OC(=O)c1cc(O)c(C(=O)c2c(O)cccc2C(=O)O)c(O)c1)c1ccc(O)cc1 (stereo in doubt; syn)"
category_label = "Not fulfilled"

[[record]]
molecule = "O=C(NC1C2CCC(C2)C1OC(=O)c1cc(O)c(C(=O)c2c(O)cccc2C(=O)O)c(O)c1)c1ccc(O)cc1 (stereo in doubt)"
category_label = "Not fulfilled"

[[record]]
molecule = "O=C(NC1CCC[C@@H]1OC(=O)c1cc(O)c(C(=O)c2c(O)cccc2C(=O)O)c(O)c1)c1ccc(O)cc1 (mixture of isomers)"
category_label = "Fulfilled"


Lab note: next molecule to report on.
query: Take the molecule CN1C2CCC1C(NC(=O)c1ccc(O)cc1)C(OC(=O)c1cc(O)c(C(=O)c3c(O)cccc3C(=O)O)c(O)c1)C2 (stereo in doubt; anti) and say whether its IC50 is less than 1000 nM.
result: Not fulfilled

----------
- system tested: Protein kinase C zeta type (Homo sapiens)
- Sequence (Q05513 whole entry): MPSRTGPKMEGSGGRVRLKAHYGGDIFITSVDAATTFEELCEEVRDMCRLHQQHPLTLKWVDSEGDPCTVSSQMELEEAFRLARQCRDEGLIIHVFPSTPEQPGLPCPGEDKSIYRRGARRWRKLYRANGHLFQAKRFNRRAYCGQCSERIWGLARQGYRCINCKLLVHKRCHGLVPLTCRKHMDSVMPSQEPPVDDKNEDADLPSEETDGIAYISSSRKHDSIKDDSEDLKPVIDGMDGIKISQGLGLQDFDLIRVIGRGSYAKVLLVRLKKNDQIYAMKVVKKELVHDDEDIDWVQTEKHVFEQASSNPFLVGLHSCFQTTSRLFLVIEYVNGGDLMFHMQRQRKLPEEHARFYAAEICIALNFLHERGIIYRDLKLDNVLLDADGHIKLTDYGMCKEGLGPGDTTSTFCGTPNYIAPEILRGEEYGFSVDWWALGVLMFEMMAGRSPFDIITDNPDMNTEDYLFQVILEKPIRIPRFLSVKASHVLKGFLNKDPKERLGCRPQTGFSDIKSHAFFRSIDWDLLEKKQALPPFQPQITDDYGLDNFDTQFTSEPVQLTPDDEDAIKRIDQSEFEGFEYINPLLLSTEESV
outcome measure: IC50

Recorded results for 3 compounds are shown here.
[[record]]
compound = "CN1C2CCC1C(NC(=O)c1ccc(O)cc1)C(OC(=O)c1cc(O)c(C(=O)c3c(O)cccc3C(=O)O)c(O)c1)C2 (stereo in doubt; syn)"
outcome_measure = "IC50"
test_result = "> 50 µM"

[[record]]
compound = "CN1C2CCC1C(NC(=O)c1ccc(O)cc1)C(OC(=O)c1cc(O)c(C(=O)c3c(O)cccc3C(=O)O)c(O)c1)C2 (stereo in doubt; anti)"
outcome_measure = "IC50"
test_result = "> 50 µM"

[[record]]
compound = "CC1(C)C2CCC1(C)C(OC(=O)c1cc(O)c(C(=O)c3c(O)cccc3C(=O)O)c(O)c1)C2NC(=O)c1ccc(O)cc1 (centres undefined)"
outcome_measure = "IC50"
test_result = "> 50 µM"


From here, focus on the item given below.
Summary: O=C(NC1CNC[C@@H]1OC(=O)c1cc(O)c(C(=O)c2c(O)cccc2C(=O)O)c(O)c1)c1ccc(O)cc1 (mixture of isomers) , Protein kinase C zeta type (Homo sapiens), IC50 = > 0.15 µM

----------
Protein kinase C gamma type (Homo sapiens): recorded pIC50 for assorted compounds
One number for each entry, as −log10 of the molar value.

[[record]]
compound = "O=C(NC1CN2CCC(CC2)C1OC(=O)c1cc(O)c(C(=O)c2c(O)cccc2C(=O)O)c(O)c1)c1ccc(O)cc1 (stereo in doubt; syn)"
test_result = 5.34

[[record]]
compound = "O=C(NC1C2CC(C3CCCC32)C1OC(=O)c1cc(O)c(C(=O)c2c(O)cccc2C(=O)O)c(O)c1)c1ccc(O)cc1 (stereo in doubt; anti)"
test_result = 7.30

[[record]]
compound = "O=C(NC1C2CC(C3CCCC32)C1OC(=O)c1cc(O)c(C(=O)c2c(O)cccc2C(=O)O)c(O)c1)c1ccc(O)cc1 (stereo in doubt; syn)"
test_result = 5.80

[[record]]
compound = "CC1(C)C2CCC1(C)C(OC(=O)c1cc(O)c(C(=O)c3c(O)cccc3C(=O)O)c(O)c1)C2NC(=O)c1ccc(O)cc1 (configuration not stated)"
test_result = 6.68

[[record]]
compound = "O=C(NC1CCC[C@@H]1OC(=O)c1cc(O)c(C(=O)c2c(O)cccc2C(=O)O)c(O)c1)c1ccc(O)cc1 (mixture of isomers)"
test_result = 8.00

[[record]]
compound = "O=C(NC1CNC[C@@H]1OC(=O)c1cc(O)c(C(=O)c2c(O)cccc2C(=O)O)c(O)c1)c1ccc(O)cc1 (mixture of isomers)"
test_result = 7.85


From here, focus on the item given below.
compound CN1C2CCC1C(NC(=O)c1ccc(O)cc1)C(OC(=O)c1cc(O)c(C(=O)c3c(O)cccc3C(=O)O)c(O)c1)C2 (stereo in doubt; syn) , pIC50 observed: 4.80
